From: ChEMBL document CHEMBL3817795

Procedure Text: Oral bioavailability in Han Wistar rat
Assay type: ADME, organism-based
Reported Conditions: in vivo
Observable: bioavailability (%)
Numeric answer only, unit % assumed.

Ask: Fill in the blank: the reported bioavailability of `O=C(Nc1cc(Nc2c(Cl)cnc3c2OCO3)ccn1)C1CC1` is ____.
Result: 38

----------
Measurement Target: Bone morphogenetic protein receptor type-1B (Homo sapiens)
Sequence (O00238 whole entry): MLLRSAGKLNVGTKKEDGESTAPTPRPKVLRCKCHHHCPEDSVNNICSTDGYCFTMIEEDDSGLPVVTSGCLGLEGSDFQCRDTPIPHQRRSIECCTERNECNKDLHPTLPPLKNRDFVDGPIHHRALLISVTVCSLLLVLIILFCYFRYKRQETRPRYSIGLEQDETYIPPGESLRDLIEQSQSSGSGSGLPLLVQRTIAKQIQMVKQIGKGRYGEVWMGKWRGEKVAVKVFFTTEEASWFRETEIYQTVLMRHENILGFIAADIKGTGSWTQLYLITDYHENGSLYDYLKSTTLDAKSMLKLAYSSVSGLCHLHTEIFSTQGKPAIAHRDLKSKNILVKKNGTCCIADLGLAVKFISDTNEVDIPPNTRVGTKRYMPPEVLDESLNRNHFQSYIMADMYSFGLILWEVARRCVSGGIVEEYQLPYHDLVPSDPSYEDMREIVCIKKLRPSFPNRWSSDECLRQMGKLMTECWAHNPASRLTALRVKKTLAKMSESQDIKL
Procedure Text: Inhibition of human recombinant N-terminal GST-tagged ALK6 (149 amino acids end) expressed in baculovirus infected Sf9 insect cells by FRET assay
Observable: pIC50
The value called pIC50 is obtained by taking minus log10 of the concentration in mol/L.

Ask: May I ask what pIC50 has been recorded for `O=C(Nc1cc(Nc2c(Cl)cnc3c2OCO3)ccn1)C1CC1` ?
Result: 5.89
